# TARGET ENTITY: UniProt P08709
# Sequence (P08709 61-212 limits assumed): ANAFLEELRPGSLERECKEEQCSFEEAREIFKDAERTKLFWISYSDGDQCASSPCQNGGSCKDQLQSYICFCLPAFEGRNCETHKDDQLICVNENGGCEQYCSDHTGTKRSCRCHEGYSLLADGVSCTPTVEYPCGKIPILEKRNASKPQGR
# Sequence (P08709 213-466 limits assumed): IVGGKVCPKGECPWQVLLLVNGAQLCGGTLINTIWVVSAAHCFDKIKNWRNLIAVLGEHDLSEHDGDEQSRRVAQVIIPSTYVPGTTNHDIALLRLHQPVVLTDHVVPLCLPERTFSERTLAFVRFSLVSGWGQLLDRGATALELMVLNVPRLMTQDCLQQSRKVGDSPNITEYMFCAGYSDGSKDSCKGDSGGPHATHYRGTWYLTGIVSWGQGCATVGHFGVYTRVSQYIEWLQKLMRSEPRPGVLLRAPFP
pKi: −log10 of the molar value.

MOLECULE | TARGET ENTITY | pKi
Cc1nc(-c2cccc(Cl)c2F)n(O)c1C(=O)N[C@@H](Cc1ccc(NC(=O)C2CC2C)cc1)C(=O)Nc1ccc2[nH]c(C(=O)O)cc2c1 (stereo partly specified) | UniProt P08709 | 5.38

====

# TARGET ENTITY: UniProt P03951
# Sequence (P03951 19-387 limits assumed): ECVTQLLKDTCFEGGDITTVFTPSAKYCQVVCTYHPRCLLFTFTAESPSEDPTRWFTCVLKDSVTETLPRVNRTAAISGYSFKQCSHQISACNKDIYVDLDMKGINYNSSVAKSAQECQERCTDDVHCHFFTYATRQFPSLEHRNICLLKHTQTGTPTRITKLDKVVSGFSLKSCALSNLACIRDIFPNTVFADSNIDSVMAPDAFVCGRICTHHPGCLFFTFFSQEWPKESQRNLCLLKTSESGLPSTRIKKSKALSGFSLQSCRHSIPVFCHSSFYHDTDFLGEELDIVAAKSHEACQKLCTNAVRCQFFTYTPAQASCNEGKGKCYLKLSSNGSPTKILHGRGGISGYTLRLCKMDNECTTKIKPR
# Sequence (P03951 388-625 limits assumed): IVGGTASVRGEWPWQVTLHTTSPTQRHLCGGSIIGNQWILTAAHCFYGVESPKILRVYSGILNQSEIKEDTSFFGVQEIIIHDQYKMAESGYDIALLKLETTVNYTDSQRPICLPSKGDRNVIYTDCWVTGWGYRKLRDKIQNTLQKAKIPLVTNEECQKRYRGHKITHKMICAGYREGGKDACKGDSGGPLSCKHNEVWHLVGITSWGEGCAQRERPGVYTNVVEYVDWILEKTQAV

MOLECULE SMILES | CENSORING QUALIFIER | Ki (nM)
Cc1nc(-c2cccc(Cl)c2F)n(O)c1C(=O)N[C@@H](Cc1ccc(N)cc1)C(=O)Nc1ccc2[nH]c(C(=O)O)cc2c1 | = | 3080
C#CC(=O)Nc1ccc(C[C@H](NC(=O)c2c(C)nc(-c3cccc(Cl)c3F)n2O)C(=O)Nc2ccc3[nH]c(C(=O)O)cc3c2)cc1 | = | 53
Cc1nc(-c2ccc(Cl)cc2)n(O)c1C(=O)N[C@@H](Cc1ccccc1)C(=O)Nc1ccc(C(=O)O)cc1 | > | 100000
Cc1nc(-c2cccc(Cl)c2F)n(O)c1C(=O)N[C@@H](Cc1ccc(Br)cc1)C(=O)Nc1ccc2[nH]c(C(=O)O)cc2c1 | = | 962

====

A set of molecules tested on UniProt P03951, with measured pKi:
pKi: −log10 of the molar value.
ASSAY READOUT: pKi

MOLECULE SMILES | OBSERVED VALUE
Cc1nc(-c2ccccc2Cl)n(O)c1C(=O)N[C@@H](Cc1ccccc1)C(=O)Nc1ccc(C(=O)O)cc1 | < 4.00
Cc1nc(-c2ccccc2)n(O)c1C(=O)N[C@@H](Cc1ccccc1)C(=O)Nc1ccc(C(=O)O)cc1 | < 4.00
Cc1nc(-c2ccc(OCC(C)C)c(C#N)c2)n(O)c1C(=O)O | < 3.30
